protocol.text: Inhibition of HIV-2 ROD9 integrase E92Q/N155H double mutant
Set-up: species or system Human immunodeficiency virus 2

[
  {
    "substance.smiles": "C[C@@H]1CCO[C@H]2Cn3cc(C(=O)NCc4ccc(F)cc4F)c(=O)c(O)c3C(=O)N12",
    "unit.tag": "nM",
    "EC50": 25
  }
]

----------
Tested on: Human immunodeficiency virus 1
protocol.text: Antiviral activity against HIV1 3B infected in human C8166 cells
Type: functional, organism-based

[
  {
    "substance.smiles": "CC(C)c1c(CC2CCCCC2)nc(SCC(=O)c2ccccc2)[nH]c1=O",
    "EC50": "0.012 to 101 nM"
  }
]
